Test system: HT-1080
Assay: CellTiter-Glo proliferation and viability assay
Type: cell-based
Settings: Homo sapiens, read-out: Abs IC50
pIC50: −log10 of the molar value.

- inputSmiles: "CNc1ncc2cc(-c3cc(NC(=O)NCCC(C)(C)C)c(F)cc3C)c(C)nc2n1"
  pIC50: 9.01

* * *

System: A375 cells
Assay: CellTiter-Blue A375 cell proliferation assay
Type: cell-based
Conditions: Homo sapiens, A-375, read-out: Cell Proliferation Inhibition IC50
Method: Collection (ATCC, Manassas, Va.). Briefly, cells are grown in DMEM High Glucose supplemented with 10% characterized fetal bovine serum (Invitrogen, Carlsbad, Calif.) and 1% Penicillin/Streptomycin/L-Glutamine at 37 degrees Celsius, 5% CO2, and 95% humidity. […] Plates are read on a Synergy2 reader (Biotek, Winooski, Vt.) using an excitation of 540 nm and an emission of 600 nm. Data is analyzed using Prism software (Graphpad, San Diego, Calif.) to calculate IC50 values. […]

- molecule: "CNc1ncc2cc(-c3cc(NC(=O)NCCC(C)(C)C)c(F)cc3C)c(C)nc2n1 [Example 1]"
  IC50 (nM): 9
